# TARGET_OR_SYSTEM: Thyrotropin receptor (Homo sapiens) (UniProt P16473)
# Sequence (P16473 whole entry, looked up): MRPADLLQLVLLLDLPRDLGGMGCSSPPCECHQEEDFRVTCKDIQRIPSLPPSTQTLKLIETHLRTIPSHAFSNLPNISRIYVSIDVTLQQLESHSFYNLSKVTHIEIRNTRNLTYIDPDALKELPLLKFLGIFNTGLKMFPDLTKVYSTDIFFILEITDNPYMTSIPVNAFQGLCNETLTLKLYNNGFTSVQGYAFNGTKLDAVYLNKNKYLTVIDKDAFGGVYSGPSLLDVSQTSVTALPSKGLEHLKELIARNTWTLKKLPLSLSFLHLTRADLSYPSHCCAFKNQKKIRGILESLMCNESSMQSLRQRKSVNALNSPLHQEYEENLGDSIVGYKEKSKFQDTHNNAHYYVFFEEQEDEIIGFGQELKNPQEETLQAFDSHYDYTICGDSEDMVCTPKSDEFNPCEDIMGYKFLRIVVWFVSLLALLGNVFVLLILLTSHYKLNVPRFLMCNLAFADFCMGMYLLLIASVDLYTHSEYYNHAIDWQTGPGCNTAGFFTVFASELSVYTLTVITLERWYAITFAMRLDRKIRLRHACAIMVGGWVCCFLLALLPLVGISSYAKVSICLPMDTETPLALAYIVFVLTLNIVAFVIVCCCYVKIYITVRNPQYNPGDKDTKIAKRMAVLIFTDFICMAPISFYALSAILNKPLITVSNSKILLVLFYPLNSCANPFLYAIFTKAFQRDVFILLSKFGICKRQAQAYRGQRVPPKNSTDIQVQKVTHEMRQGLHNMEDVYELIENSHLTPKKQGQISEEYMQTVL
# EXPERIMENTAL_PROTOCOL: qHTS assay to identify small molecule antagonists of the thyroid stimulating hormone receptor (TSHR) signaling pathway (AID 1259385); note: % is set by controls: 0 for no effect and ±100 for the full control effect; nearly all actives have a fitted effect of over 20% in size
# TEST_SETTINGS: TSHR-HEK293 cAMP HTRF, TSH-stimulated antagonist mode; series mostly up to 92.4 µM
Records with an inconclusive call do not appear. Active and inactive are the calls of the source. Calls come from the whole dose curve.
RECORDED_METRIC: activity change, negative = inhibition

Illustrative cases are given below, each with its answer.
1) BrC/C=C/CBr ... -1.56% [at 19 µM] (inactive)
2) O=C1NC2NC(=O)NC2N1 (configuration not stated) ... inactive
3) C[C@H](CCC(=O)O)[C@H]1CC[C@H]2[C@@H]3[C@H](O)C[C@@H]4C[C@H](O)CC[C@]4(C)[C@H]3C[C@H](O)[C@]12C ... inactive
4) O=c1[nH]c(=O)c2ccccc2o1 ... inactive
5) CCOC(=O)C(C)(C)C ... inactive
6) CCCCCCCCCCCCCC(=O)OC ... inactive

Turning now to a further compound:
Input: Assign activity change, negative = inhibition to the following record: `C=CCCCCCCCCCCC`
Output: 3.13% [at 8.39 µM] (inactive)

* * *

# EXPERIMENTAL_PROTOCOL: qHTS assay to test for compound auto fluorescence at 535 nm (green) in HEK293 cell free culture (AID 720682); note: % is set by controls: 0 for no effect and ±100 for the full control effect
# TEST_SETTINGS: cell-free medium, green autofluorescence 485/535 nm, active compounds read high; series mostly up to 91.3 µM
Activity calls are given as the source filed them. The call rests on the fitted dose curve; in most records, active means well fitted curve in the direction sought with a large enough effect in the repeat runs; inconclusive means weak or mixed curves; inactive means flat fitted curve, though single readings scatter.
RECORDED_METRIC: activity change

Illustrative cases are given below, each with its answer.
1. CC(=O)N(CC(O)CO)c1c(I)c(C(=O)NCC(O)CO)c(I)c(C(=O)NCC(O)CO)c1I (stereo not drawn) ... inactive
2. C=CCOc1c(Br)cc(C(C)(C)c2cc(Br)c(OCC=C)c(Br)c2)cc1Br ... inactive
3. C=CCCCCCCCCCCC ... 0.0052% [at 3.72 µM] (inactive)
4. CC(C)c1ccccc1O ... inactive
5. NS(=O)(=O)c1cc2c(cc1Cl)NC(CC1CCCC1)NS2(=O)=O (stereo not drawn) ... 0.104% [at 18.6 µM] (inactive)

Input: Assign activity change to the following record: `CC(C)CCC(=O)CCC(C)C`
Output: inactive

* * *

# EXPERIMENTAL_PROTOCOL: qHTS assay for identifying genotoxic compounds that show differential cytotoxicity against isogenic chicken DT40 cell lines with known DNA damage response pathways - Rad54/Ku70 mutant cell line (AID 743015); note: nearly all actives have a fitted effect of over 60% in size
# TEST_SETTINGS: DT40 Rad54/Ku70 mutant viability, CellTiter-Glo, 40 h; series mostly up to 66.8 µM
Inconclusive results are not listed. The source made the active and inactive calls. The call rests on the fitted dose curve; in most records, active means well fitted cell-killing curve with a large enough effect in the repeat runs; inconclusive means weak or mixed curves; inactive means no such curve, though single readings can be large or run the other way.
Thanks in advance; please answer with one of these: active, inactive

Input: Identify the outcome logged in this assay for the molecule shown: `Cc1cccc(NC(=S)N(C)C)c1`
Output: inactive

Input: Identify the outcome logged in this assay for the molecule shown: O=C1NC2NC(=O)NC2N1 (stereo not given)
Output: inactive

Input: Identify the outcome logged in this assay for the molecule shown: Cc1ccc2c(c1)c1c3n2CCNC3CCC1 (stereo not given)
Output: active

Input: Identify the outcome logged in this assay for the molecule shown: CC1(N)CCC(C(C)(C)N)CC1 (stereo not given)
Output: inactive

Input: Identify the outcome logged in this assay for the molecule shown: CCCC(C)CC (stereo not given)
Output: inactive

Input: Identify the outcome logged in this assay for the molecule shown: `Cc1nc([N+](=O)[O-])cn1-c1ccc([N+](=O)[O-])cc1`
Output: inactive

Input: Identify the outcome logged in this assay for the molecule shown: `O=S1(=O)CCCC1`
Output: inactive

Input: Identify the outcome logged in this assay for the molecule shown: `CCCCCCCCCCC`
Output: inactive

Input: Identify the outcome logged in this assay for the molecule shown: CC(C)CCCC(C)CC=O (stereo not given)
Output: inactive

Input: Identify the outcome logged in this assay for the molecule shown: `CC(C)C(=O)c1ccccc1`
Output: inactive

Input: Identify the outcome logged in this assay for the molecule shown: `C=C[C@@H](C)CCC=C(C)C`
Output: inactive

Input: Identify the outcome logged in this assay for the molecule shown: `COc1ccc(N=Nc2cc(C)c(N=Nc3ccc(S(=O)(=O)O)cc3)cc2OC)cc1`
Output: inactive

Input: Identify the outcome logged in this assay for the molecule shown: `COC(=O)CCC(=O)O`
Output: inactive

Input: Identify the outcome logged in this assay for the molecule shown: `COc1cc([N+](=O)[O-])ccc1N`
Output: inactive

Input: Identify the outcome logged in this assay for the molecule shown: `O=C(/C=C/c1ccccc1)NCCO`
Output: inactive
